Cited source for all entries: the supplement of paper PMC10899765

system: MCF10A; assay: one-nucleolus phenotype percent effect (relative to siNT 0% and siNOL11 100%); higher = more cells with one nucleolus (ribosome biogenesis inhibition); details: 20 nM; 72 h
Observable: one-nucleolus phenotype percent effect

[[record]]
chain = "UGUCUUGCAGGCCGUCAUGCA [hsa-miR-431-5p]"
result = "53.9%"

[[record]]
chain = "AACUGUUUGCAGAGGAAACUGA [hsa-miR-452-5p]"
result = "-22.3%"

[[record]]
chain = "CGUCCCGGGGCUGCGCGAGGCA [hsa-miR-4449]"
result = "-6.92%"

[[record]]
chain = "CUGCCCUGGCCCGAGGGACCGA [hsa-miR-874]"
result = "4.65%"

[[record]]
chain = "AAAAGCUGGGCUGAGAGGCG [hsa-miR-4429]"
result = "24.9%"

[[record]]
chain = "CCCUGUGCCCGGCCCACUUCUG [hsa-miR-1914-5p]"
result = "-13.8%"

[[record]]
chain = "UUGGAGGCGUGGGUUUU [hsa-miR-4443]"
result = "61.2%"

[[record]]
chain = "ACUGGCCUGGGACUACCGG [hsa-miR-3176]"
result = "-13.2%"

[[record]]
chain = "CCUCGGUACUGGAAAGGGGUA [hsa-miR-8088]"
result = "-9.43%"

[[record]]
chain = "UGAGGCGGGGGGGCGAGC [hsa-miR-6087]"
result = "15.3%"

[[record]]
chain = "CAGUGGUUUUACCCUAUGGUAG [hsa-miR-140-5p]"
result = "20.1%"

[[record]]
chain = "UUUGGUCCCCUUCAACCAGCUG [hsa-miR-133a]"
result = "20.5%"

[[record]]
chain = "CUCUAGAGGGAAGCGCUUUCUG [hsa-miR-523-5p]"
result = "5.46%"

[[record]]
chain = "AUAGGACUCAUAUAGUGCCAG [hsa-miR-3117-3p]"
result = "-13.2%"

[[record]]
chain = "UGGGGGAGUGCAGUGAUUGUGG [hsa-miR-5698]"
result = "-25.1%"

[[record]]
chain = "ACCACUGCACUCCAGCCUGAG [hsa-miR-1273g-3p]"
result = "5.96%"

[[record]]
chain = "CUCACUGAUCAAUGAAUGCA [hsa-miR-181b-2-3p]"
result = "-19.1%"

[[record]]
chain = "AAAAGCAUCAGGAAGUACCCA [hsa-miR-4422]"
result = "-9.65%"

[[record]]
chain = "UCGUUUGCCUUUUUCUGCUU [hsa-miR-1282]"
result = "-8.15%"

[[record]]
chain = "AUCAAGGAUCUUAAACUUUGCC [hsa-miR-561-5p]"
result = "5.64%"

[[record]]
chain = "UUCAGAUCCCAGCGGUGCCUCU [hsa-miR-5100]"
result = "14.1%"

[[record]]
chain = "UUGCACUCUGGCCUUCUCCCAGG [hsa-miR-7703]"
result = "23%"

[[record]]
chain = "UGGGUAGAGAAGGAGCUCAGAGGA [hsa-miR-3132]"
result = "1.88%"

[[record]]
chain = "GCAGCAGGGUGAAACUGACACA [hsa-miR-761]"
result = "4.85%"

[[record]]
chain = "UGAAACAUACACGGGAAACCUC [hsa-miR-494]"
result = "34.9%"

[[record]]
chain = "GGAUGGUUGGGGGCGGUCGGCGU [hsa-miR-8069]"
result = "28.5%"

[[record]]
chain = "AGAAGUGGCUAAUAAUAUUGA [hsa-miR-4795-5p]"
result = "-14.7%"

[[record]]
chain = "CCCAUCACCUUUCCGUCUCCCCU [hsa-miR-6884-3p]"
result = "-25.5%"

[[record]]
chain = "UUAAGACUUGCAGUGAUGUUU [hsa-miR-499a-5p]"
result = "5.05%"

[[record]]
chain = "AUGGGUGAUGGGUGUGGUGU [hsa-miR-4701-3p]"
result = "47.1%"

[[record]]
chain = "UGCUUAACCUUGCCCUCGAAA [hsa-miR-4804-3p]"
result = "20.5%"

[[record]]
chain = "AAAAGUGAUUGCAGUGUUUG [hsa-miR-548ah-5p]"
result = "-15.3%"

[[record]]
chain = "CAAAAACCGCAAUUACUUUUGCA [hsa-miR-548z]"
result = "0.602%"

[[record]]
chain = "AUCUGGAGGUAAGAAGCACUUU [hsa-miR-516b-5p]"
result = "-1.83%"

[[record]]
chain = "AUGCCUCCCCCGGCCCCGCAG [hsa-miR-6836-3p]"
result = "-8.85%"

[[record]]
chain = "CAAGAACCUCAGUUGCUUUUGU [hsa-miR-548b-3p]"
result = "-16.6%"

[[record]]
chain = "UCUAAAGACUAGACUUCGCUAUG [hsa-miR-4744]"
result = "-22%"

[[record]]
chain = "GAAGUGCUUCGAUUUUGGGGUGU [hsa-miR-373-3p]"
result = "-22.2%"

